Each entry below carries its recorded selectivity ratio.
# methodNotes: Selectivity index, ratio of EC50 for mouse NIH/3T3 cells to EC50 for human A549 cells
# setupConditions: NIH/3T3 cells versus A549 cells
property: selectivity ratio

>  <testSmiles>
COCO[C@@H]1C[C@]2(C)[C@H]3CC=C4[C@@H]5CC(C)(C)CC[C@]5(C(=O)NCc5ccccc5)CC[C@@]4(C)[C@]3(C)CC[C@H]2C(C)(C)[C@H]1O

>  <recordedMeasurement>
5

$$$$
>  <testSmiles>
COCCO[C@@H]1C[C@]2(C)[C@H]3CC=C4[C@@H]5CC(C)(C)CC[C@]5(C(=O)NCc5ccccc5)CC[C@@]4(C)[C@]3(C)CC[C@H]2C(C)(C)[C@H]1OCCOC

>  <recordedMeasurement>
5

$$$$

---

Each entry below carries its recorded pEC50.
# Tested on: HT-29
# methodNotes: Cytotoxicity against human HT-29 cells assessed as reduction in cell proliferation after 96 hrs by sulforhodamine B assay
# Assay type: functional, cell-based
# setupConditions: HT-29, 96 h
pEC50: −log10 of the molar value.

>  <testSmiles>
COCO[C@@H]1C[C@]2(C)[C@H]3CC=C4[C@@H]5CC(C)(C)CC[C@]5(C(=O)NCc5ccccc5)CC[C@@]4(C)[C@]3(C)CC[C@H]2C(C)(C)[C@H]1OCOC

>  <pEC50>
4.80

$$$$
>  <testSmiles>
CC(=O)O[C@@H]1[C@H](OC(C)=O)C[C@]2(C)[C@H]3CC=C4[C@@H]5CC(C)(C)CC[C@]5(C(=O)NCc5ccccc5)CC[C@@]4(C)[C@]3(C)CC[C@H]2C1(C)C

>  <pEC50>
5.11

$$$$
>  <testSmiles>
CC(=O)O[C@@H]1C[C@]2(C)[C@H]3CC=C4[C@@H]5CC(C)(C)CC[C@]5(C(=O)NCc5ccccc5)CC[C@@]4(C)[C@]3(C)CC[C@H]2C(C)(C)[C@H]1OC(C)=O

>  <pEC50>
5.33

$$$$

---

# Tested on: MCF7
# methodNotes: Cytotoxicity against human MCF7 cells assessed as reduction in cell proliferation after 96 hrs by sulforhodamine B assay
# Format: functional, cell-based
# setupConditions: MCF7, 96 h
pEC50: −log10 of the molar value.

>  <testSmiles>
COCO[C@@H]1C[C@]2(C)[C@H]3CC=C4[C@@H]5CC(C)(C)CC[C@]5(C(=O)NCc5ccccc5)CC[C@@]4(C)[C@]3(C)CC[C@H]2C(C)(C)[C@H]1OCOC

>  <comparisonSymbol>
=

>  <pEC50>
4.82

$$$$
>  <testSmiles>
CC(=O)O[C@H]1C[C@]2(C)[C@H]3CC=C4[C@@H]5[C@@H](C)[C@H](C)CC[C@]5(NC(=O)Nc5ccccc5)CC[C@@]4(C)[C@]3(C)CC[C@H]2C(C)(C)[C@H]1OC(C)=O

>  <comparisonSymbol>
=

>  <pEC50>
4.71

$$$$
>  <testSmiles>
CC(=O)O[C@H]1C[C@]2(C)[C@H]3CC=C4[C@@H]5[C@@H](C)[C@H](C)CC[C@]5(NC(=O)c5ccccc5)CC[C@@]4(C)[C@]3(C)CC[C@H]2C(C)(C)[C@H]1OC(C)=O

>  <comparisonSymbol>
<

>  <pEC50>
4.52

$$$$
>  <testSmiles>
CC1(C)CC[C@]2(C(=O)NCc3ccccc3)CC[C@]3(C)C(=CC[C@@H]4[C@@]5(C)C[C@@H]6O[C@@H]6C(C)(C)[C@@H]5CC[C@]43C)[C@@H]2C1

>  <comparisonSymbol>
=

>  <pEC50>
5.07

$$$$
>  <testSmiles>
CO[C@@H]1C[C@]2(C)[C@H]3CC=C4[C@@H]5CC(C)(C)CC[C@]5(C(=O)NCc5ccccc5)CC[C@@]4(C)[C@]3(C)CC[C@H]2C(C)(C)[C@H]1O

>  <comparisonSymbol>
=

>  <pEC50>
4.93

$$$$
